Reference source for all entries: ChEMBL document CHEMBL1136970

# TESTED_ON: Peroxisome proliferator-activated receptor alpha (Homo sapiens)
# Sequence (Q07869 whole entry): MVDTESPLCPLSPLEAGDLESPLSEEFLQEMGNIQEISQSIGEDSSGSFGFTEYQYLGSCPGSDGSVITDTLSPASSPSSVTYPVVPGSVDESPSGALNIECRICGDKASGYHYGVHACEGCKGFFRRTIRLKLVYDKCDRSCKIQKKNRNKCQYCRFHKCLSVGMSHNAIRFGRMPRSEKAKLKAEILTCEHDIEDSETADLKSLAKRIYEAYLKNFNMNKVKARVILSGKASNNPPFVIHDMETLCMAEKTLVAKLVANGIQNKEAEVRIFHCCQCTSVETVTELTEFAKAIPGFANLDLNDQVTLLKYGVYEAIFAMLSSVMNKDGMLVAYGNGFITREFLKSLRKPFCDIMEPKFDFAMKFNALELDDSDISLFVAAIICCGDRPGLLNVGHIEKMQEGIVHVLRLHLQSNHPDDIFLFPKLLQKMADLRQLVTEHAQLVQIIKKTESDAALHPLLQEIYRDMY
Parameter: log10(Ki). Scope: all listed entries.
// units: nM (pre-log); metric: Ki; scale: log10

{"columns": ["COMPOUND", "log10(Ki)"],
 "data": [
  ["Cc1cc(COc2cc(COc3ccc(C(F)(F)F)cc3)ccc2Sc2ccc(OCC(=O)O)c(C)c2C)no1", 2.97],
  ["Cc1c(OCC(=O)O)ccc(Sc2ccc(COc3ccc(C(F)(F)F)cc3)cc2OCc2cccnc2)c1C", 3.11],
  ["O=C(O)COc1ccc(Sc2ccc(COc3ccc(C(F)(F)F)cc3)cc2OCC#Cc2cccnc2)c2c1CCCC2", 3.00]
]}

Incoming: Complete the entry with log10(Ki) for O=C(O)COc1ccc(Sc2ccc(COc3ccc(C(F)(F)F)cc3)cc2OCC#CCO)c2c1CCCC2
Outgoing: 3.23

Incoming: Complete the entry with log10(Ki) for CCC#CCOc1cc(COC2CCOCC2)ccc1Sc1ccc(OCC(=O)O)c2c1CCCC2
Outgoing: 3.74

Incoming: Complete the entry with log10(Ki) for CCC#CCOc1cc(COc2ccc(Cl)cc2C)ccc1Sc1ccc(OCC(=O)O)c2c1CCCC2
Outgoing: 2.90

Incoming: Complete the entry with log10(Ki) for COCCCOc1cc(COc2ccc(C(F)(F)F)cc2)ccc1Sc1ccc(OCC(=O)O)c(C)c1C
Outgoing: 3.08

Incoming: Complete the entry with log10(Ki) for Cc1c(OCC(=O)O)ccc(Sc2ccc(COc3ccc(C(F)(F)F)cc3)cc2OCCN2CCOCC2)c1C
Outgoing: 3.08

Incoming: Complete the entry with log10(Ki) for CCC#CCOc1cc(COc2ccc(Cl)cc2)ccc1Sc1ccc(OCC(=O)O)c2c1CCCC2
Outgoing: 3.30

Incoming: Complete the entry with log10(Ki) for CCC#CCOc1cc(COCC2CC2)ccc1Sc1ccc(OCC(=O)O)c2c1CCCC2
Outgoing: 3.61

Incoming: Complete the entry with log10(Ki) for C#CCOc1cc(COc2ccc(C(F)(F)F)cc2)ccc1Sc1ccc(OCC(=O)O)c(C)c1C
Outgoing: 2.32

Incoming: Complete the entry with log10(Ki) for O=C(O)COc1ccc(Sc2ccc(COc3ccc(C(F)(F)F)cc3)cc2Cl)c2c1CCCC2
Outgoing: 3.04

Incoming: Complete the entry with log10(Ki) for CCC#CCOc1cc(COc2ccc(C(F)(F)F)cn2)ccc1Sc1ccc(OCC(=O)O)c2c1CCCC2
Outgoing: 3.90

Incoming: Complete the entry with log10(Ki) for Cc1c(OCC(=O)O)ccc(Sc2ccc(COc3ccc(C(F)(F)F)cc3)cc2OCc2ccncc2)c1C
Outgoing: 3.11

Incoming: Complete the entry with log10(Ki) for CCC#CCOc1cc(CNc2ccc(C(F)(F)F)cc2)ccc1Sc1ccc(OCC(=O)O)c2c1CCCC2
Outgoing: 3.77

Incoming: Complete the entry with log10(Ki) for Cc1c(OCC(=O)O)ccc(Sc2ccc(COc3ccc(C(F)(F)F)cc3)cc2OCC2CCCO2)c1C (configuration not stated)
Outgoing: 3.04

Incoming: Complete the entry with log10(Ki) for CCC#CCOc1cc(COc2cccc(C(F)(F)F)c2)ccc1Sc1ccc(OCC(=O)O)c2c1CCCC2
Outgoing: 3.11

Incoming: Complete the entry with log10(Ki) for CCC#CCOc1cc(COC2CCCC2)ccc1Sc1ccc(OCC(=O)O)c2c1CCCC2
Outgoing: 3.41

Incoming: Complete the entry with log10(Ki) for CCC#CCOc1cc(COc2ccccc2C(F)(F)F)ccc1Sc1ccc(OCC(=O)O)c2c1CCCC2
Outgoing: 2.97

Incoming: Complete the entry with log10(Ki) for Cc1c(OCC(=O)O)ccc(Sc2ccc(COc3ccc(C(F)(F)F)cc3)cc2OCC#N)c1C
Outgoing: 3.08

Incoming: Complete the entry with log10(Ki) for COCCOc1cc(COc2ccc(C(F)(F)F)cc2)ccc1Sc1ccc(OCC(=O)O)c(C)c1C
Outgoing: 3.11
